TESTED_SYSTEM: PD-1/PD-L1 (Homo sapiens, UniProt Q9NZQ7)
Construct: made in house; host or cells: HEK293T
Sequence (Q9NZQ7 with tags, fused parts or gaps): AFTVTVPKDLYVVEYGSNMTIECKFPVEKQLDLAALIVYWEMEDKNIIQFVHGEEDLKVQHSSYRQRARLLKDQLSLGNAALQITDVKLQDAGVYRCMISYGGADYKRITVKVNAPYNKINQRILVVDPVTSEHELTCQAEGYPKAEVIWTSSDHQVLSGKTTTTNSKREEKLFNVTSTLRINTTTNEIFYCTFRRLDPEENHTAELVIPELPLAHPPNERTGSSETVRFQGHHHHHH
ASSAY_METHOD_TEXT: PD-1/PD-L1 Homogenous Time-Resolved Fluorescence (HTRF) binding assay
CONDITION_PARAMETERS: PD-L1-His 10 nM, PD-1-Ig 20 nM; value given as range class; read-out: Range or IC50
Quick list: IC50 per entry.

Answered cases to consult:
Cc1c(COc2cc(O)c(CO)cc2Cl)cccc1-c1cccc(OCCCN2CCCCC2)c1Cl [Example 2017] ... 10 to 100 nM
Cc1c(COc2cc(OCc3cncc(C#N)c3)c(CNC(CO)CO)cc2Cl)cccc1-c1cccc(OCCCNCCc2cccnc2)c1Cl [Example 2037] ... 0.21 to 10 nM
Cc1c(COc2cc(OCc3cncc(C#N)c3)c(CN[C@@](C)(CO)C(=O)O)cc2Cl)cccc1-c1cccc(OCCCNC[C@H](O)CO)c1C [Example 2286] ... 0.21 to 10 nM

Attention now shifts to the item below.
Considering CC(=O)NC1CCN(CCCOc2cccc(-c3cccc(COc4cc(OCc5cncc(C#N)c5)c(CNC(CO)CO)cc4Cl)c3C)c2Cl)C1 (stereo not shown) [Example 2052] , its IC50 with PD-1/PD-L1 (Homo sapiens, UniProt Q9NZQ7) was recorded as 0.21 to 10 nM

Cited source for all entries: patent US10745382B2
